Cited source for all entries: patent EP4603105A1

# Test system: human lung cancer strain NCI-H441
# ASSAY_TEXT: NCI-H441 cell proliferation inhibitory activity (CellTiter-Glo, 4 days)
# Type: cell-based
# RECORDED_CONDITIONS: NCI-H441 cells, 4 days, read-out: NCl-H441 IC50
PROPERTY_LABEL: IC50 (µM)
Numbers only, in µM.

COMPOUND	ASSAY_RESULT
CCCO[C@@H]1C[C@H]2C(=O)NC3(CC(C)(C)C3)C(=O)N(C)[C@@H](C3CCCC3)C(=O)N(C)[C@H](C(=O)N(C)CC)CC(=O)N(C)[C@@H](COCC)C(=O)N[C@@H]([C@@H](C)CC)C(=O)N3CCC[C@H]3C(=O)N(C)[C@H]3C/C=C\CCN(C3=O)[C@@H](Cc3ccc(C)cc3)C(=O)N(C)CC(=O)N[C@@H](CCc3ccc(C(F)(F)F)c(OC)c3)C(=O)N2C1 [PP3467]	0.0602

// moving on: another record for IC50
# C#CC[C@H]1C(=O)N[C@@H]([C@@H](C)CC)C(=O)N2CCCCC[C@H]2C(=O)N(C)[C@H]2C/C=C\CCN(C2=O)[C@@H](Cc2ccc(C)cc2)C(=O)N(C)CC(=O)N[C@@H](CCc2ccc(C(F)(F)F)c(OC)c2)C(=O)N2C[C@H](OCC)C[C@H]2C(=O)N(C)C2(CCC2)C(=O)N(C)[C@@H](C2CCCC2)C(=O)N(C)[C@H](C(=O)N(C)C)CC(=O)N1C [PP3267] with human lung cancer strain NCI-H441: IC50 is 0.196

====

# TARGET_DESC: GDP-bound KRAS wild-type protein (Homo sapiens)
# ASSAY_TEXT: Binding to KRAS by surface plasmon resonance (SPR), dissociation constant KD
# RECORDED_CONDITIONS: Single Cycle Kinetics, 1:1 binding model
PROPERTY_LABEL: pKd
Numbers only, as −log10 of the molar value.

COMPOUND	pKd
CCC[C@H]1C(=O)N[C@@H]([C@@H](C)CC)C(=O)N(CCC)CC(=O)N(C)[C@H]2C/C=C\CCN(C2=O)[C@@H](Cc2ccc(C)cc2)C(=O)N(C)CC(=O)N[C@@H](CCc2cc(F)c(C(F)(F)F)c(F)c2)C(=O)N2C[C@H](OCC)C[C@H]2C(=O)NC2(CC(C)(C)C2)C(=O)N(C)[C@@H](C2CCCC2)C(=O)N(C)[C@H](C(=O)N(C)C)CC(=O)N1C [PP2108]	9.47

Working through the 2 compounds below one at a time, give pKd for each.
1. CCCOC[C@H]1C(=O)N[C@@H]([C@@H](C)CC)C(=O)N(C)CC(=O)N(C)[C@H]2C/C=C\CCN(C2=O)[C@@H](Cc2ccc(C(F)(F)F)cc2)C(=O)N(C)CC(=O)N[C@@H](CCc2ccc(C(F)(F)F)c(OC)c2)C(=O)N2C[C@H](OCC)C[C@H]2C(=O)NC2(CCC2)C(=O)N(C)[C@@H](C2CCCC2)C(=O)N(C)[C@H](C(=O)N(C)CCC)CC(=O)N1C [PP2017]
2. C=CCN1CC(=O)N(C)[C@H]2C/C=C\CCN(C2=O)[C@@H](Cc2ccc(C)cc2)C(=O)N(C)CC(=O)N[C@@H](CCc2ccc(C(F)(F)F)c(OC)c2)C(=O)N2C[C@H](OCC)C[C@H]2C(=O)NC2(CC(C)(C)C2)C(=O)N(C)[C@@H](C2CCCC2)C(=O)N(C)[C@H](C(=O)N(C)C)CC(=O)N(C)[C@@H](CC(C)C)C(=O)N[C@@H]([C@@H](C)CC)C1=O [PP2058]

Resp:
1: 10.03; 2: 9.68

====

# TARGET_DESC: GDP-bound KRAS wild-type protein (Homo sapiens, UniProt P01116)
# Sequence (P01116 1-188 isoform P01116-2): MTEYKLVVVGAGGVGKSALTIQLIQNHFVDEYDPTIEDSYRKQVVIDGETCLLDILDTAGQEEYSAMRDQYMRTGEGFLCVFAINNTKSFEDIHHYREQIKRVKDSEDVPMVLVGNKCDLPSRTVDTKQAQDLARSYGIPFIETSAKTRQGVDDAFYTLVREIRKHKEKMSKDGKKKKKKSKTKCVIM
# ASSAY_TEXT: Binding to KRAS by surface plasmon resonance (SPR), dissociation constant KD
# RECORDED_CONDITIONS: Single Cycle Kinetics
Please go through the items and note down their pKd.
Numbers only, as −log10 of the molar value.

COMPOUND	TARGET_DESC	pKd
CCC[C@H]1C(=O)N[C@@H]([C@@H](C)CC)C(=O)N(C2CC2)CC(=O)N(C)[C@H]2C/C=C\CCN(C2=O)[C@@H](Cc2ccc(C(F)(F)F)cc2)C(=O)N(C)CC(=O)N[C@@H](CCc2cc(F)c(C(F)(F)F)c(F)c2)C(=O)N2CC[C@H](OC)[C@H]2C(=O)N(C)C2(CCC2)C(=O)N(C)[C@@H](C2CCCC2)C(=O)N(C)[C@H](C(=O)N(C)C)CC(=O)N1C [PP3282]	GDP-bound KRAS wild-type protein (Homo sapiens, UniProt P01116)	9.70
CCC[C@H]1C(=O)N[C@@H]([C@@H](C)CC)C(=O)N(C)CC(=O)N(C)[C@H]2C/C=C\CCN(C2=O)[C@@H](Cc2ccc(C)cc2)C(=O)N(C)CC(=O)N[C@@H](CCc2ccc(C(F)(F)F)c(OC)c2)C(=O)N2CC3(CC3)C[C@H]2C(=O)NC2(CCC2)C(=O)N(C)[C@@H](C(CC)CC)C(=O)N(C)[C@H](C(=O)N(C)C)CC(=O)N1C [PP3422]	GDP-bound KRAS wild-type protein (Homo sapiens, UniProt P01116)	9.41

Shift focus to the following entry.
The recorded pKd for CCCO[C@@H]1C[C@H]2C(=O)NC3(CC(C)(C)C3)C(=O)N(C)[C@@H](C3CCCC3)C(=O)N(C)[C@H](C(=O)N(C)CC)CC(=O)N(C)[C@@H](COCC)C(=O)N[C@@H]([C@@H](C)CC)C(=O)N(C3CC3)CC(=O)N(C)[C@H]3C/C=C\CCN(C3=O)[C@@H](Cc3ccc(C(F)(F)F)cc3)C(=O)N(C)CC(=O)N[C@@H](CCc3cc(F)c(C(F)(F)F)c(F)c3)C(=O)N2C1 [PP3470] is 9.21

====

# Test system: human lung cancer strain NCI-H441
# Assay type: cell-based
Where a SMILES comes first, the peptide text is derived from it. Bridges are numbered along the chain shown (N, C = ends). [ ]: non-standard residue; d: D form. The star is where a group is joined. hPhe(3,5-F2-4-CF3) = N[C@@H](CCc1cc(F)c(C(F)(F)F)c(F)c1)C(=O)O; hPhe(3-Cl-4-CF3) = N[C@@H](CCc1ccc(C(F)(F)F)c(Cl)c1)C(=O)O; NPrPhe(4-CF3) = CCCN[C@@H](Cc1ccc(C(F)(F)F)cc1)C(=O)O; NMeGly(cPent) = CN[C@H](C(=O)O)C1CCCC1; αMeCha = C[C@](N)(CC1CCCCC1)C(=O)O; NMeD = CN[C@@H](CC(=O)O)C(=O)O; NMeL = CN[C@@H](CC(C)C)C(=O)O; Morpholide = C1CN(*)CCO1; NMeA = CN[C@@H](C)C(=O)O; Ac5c = NC1(C(=O)O)CCCC1; Aze = O=C(O)[C@@H]1CCN1; Sar = CNCC(=O)O
Criterion: IC50 strictly less than 5 nM. Met: true. Not met: false.

COMPOUND	CLASS_ASSIGNMENT
CCCN1C(=O)[C@@H]2CCN2C(=O)[C@H](C)N(C)C(=O)[C@H]([C@@H](C)CC)NC(=O)[C@H](CC(C)C)N(C)C(=O)C[C@@H](C(=O)N2CCOCC2)N(C)C(=O)[C@H](C2CCCC2)N(C)C(=O)C2(CCCC2)NC(=O)[C@@H]2CCCN2C(=O)[C@H](CCc2ccc(C(F)(F)F)c(Cl)c2)NC(=O)CN(C)C(=O)[C@@H]1Cc1ccc(C(F)(F)F)cc1 [PP0053] ([NMeL]I[NMeA][Aze][NPrPhe(4-CF3)][Sar][hPhe(3-Cl-4-CF3)]P[Ac5c][NMeGly(cPent)][NMeD]-Morpholide; lactam N-11)	true
CCO[C@@H]1C[C@H]2C(=O)N(C)C3(CC(C)(C)C3)C(=O)N(C)[C@@H](C3CCCC3)C(=O)N(C)[C@H](C(=O)N(C)C)CC(=O)N(C)[C@H]3CCCCCCc4ccc(cc4)C[C@@H](C(=O)N(C)CC(=O)N[C@@H](CCc4ccc(C(F)(F)F)c(OC)c4)C(=O)N2C1)N1CC/C=C\C[C@@H](C1=O)N(C)C(=O)CN(C)C(=O)[C@H]([C@@H](C)CC)NC3=O [PP3090]	true
CCC[C@H]1C(=O)N[C@@H]([C@@H](C)CC)C(=O)N(C)CC(=O)N(C)[C@H]2C/C=C\CCN(C2=O)[C@@H](Cc2ccc(C(F)(F)F)cc2)C(=O)N(C)CC(=O)N[C@@H](CCc2ccc(Cl)c(Cl)c2)C(=O)N2C[C@H](OCC)C[C@H]2C(=O)NC2(CC(C)(C)C2)C(=O)N(C)[C@@H](CC2CC2)C(=O)N(C)[C@H](C(=O)N(C)C)CC(=O)N1C [PP2811]	false
CCCN1C(=O)CN(C)C(=O)CN(C)C(=O)[C@H]([C@@H](C)CC)NC(=O)[C@H](CC(C)C)N(C)C(=O)C[C@@H](C(=O)N(C)C)N(C)C(=O)[C@H](C2CCCC2)N(C)C(=O)[C@](C)(CC2CCCCC2)NC(=O)[C@@H]2CCCN2C(=O)[C@H](CCc2cc(F)c(C(F)(F)F)c(F)c2)NC(=O)CN(C)C(=O)[C@@H]1Cc1ccc(C(F)(F)F)cc1 [PP0739] ([NMeL]I[Sar][Sar][NPrPhe(4-CF3)][Sar][hPhe(3,5-F2-4-CF3)]P[αMeCha][NMeGly(cPent)][NMeD]-NMe2; lactam N-11)	false

Req: Does this compound meet the criterion IC50 < 5 nM? CCCN1C(=O)CN(C)C(=O)CNC(=O)[C@H]([C@@H](C)CC)NC(=O)[C@H](CC(C)C)N(C)C(=O)C[C@@H](C(=O)N2CCOCC2)N(C)C(=O)[C@H](C2CCCC2)N(C)C(=O)C2(CCCC2)NC(=O)[C@@H]2CCCN2C(=O)[C@H](CCc2ccc(C(F)(F)F)c(Cl)c2)NC(=O)CN(C)C(=O)[C@@H]1Cc1ccc(C(F)(F)F)cc1 [PP0155] ([NMeL]IG[Sar][NPrPhe(4-CF3)][Sar][hPhe(3-Cl-4-CF3)]P[Ac5c][NMeGly(cPent)][NMeD]-Morpholide; lactam N-11)
Resp: true
